assay-summary: chemical genetic growth profiling, strain panel (AID 1159580);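 note: tested at 20 µM; growth read once vehicle control cultures reached saturation at 30 °C; 1 = growth at the plate median or of vehicle wells; lower values mean less growth of the strain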
cond: S. cerevisiae deletion strains, growth OD, locus YOL006C, strain TOP1
Among all 5,500 compounds or so, about 2,000 (36%) were called active. Another 18% or so got no clear call; they are omitted. Cut-off read from the data, not from the text of the source: active = normalized growth mostly below about 0.91 (no sharp cut-off); inconclusive = no clear call, values can overlap the other calls; inactive = mostly above about 0.92. The list shows a part of the results.
Classes to choose from: true (1) (active), false (0) (inactive)

Entry COCCc1ccc(OCC(O)CNC(C)C)cc1 (configuration not stated) : call = ?
false (0)

How did this test come out for CCS(=O)CCSP(=O)(OC)OC (configuration not stated) ?
false (0)

State the result this test recorded for `COc1ccc2c(c1OC)C(=O)O[C@H]2[C@H]1c2cc3c(cc2CCN1C)OCO3` .
false (0)

// param item: CC(Oc1ccccc1)C(=O)N[C@@H]1C(=O)N2[C@@H]1SC(C)(C)[C@@H]2C(=O)O (some centres not stated) ; yields the recorded call
false (0)

Entry COc1cc2c(cc1OC)C1C(=O)c3c(O)cc4c(c3OC1CO2)C=CC(C)(C)O4 (configuration not stated) : call = ?
false (0)

Any idea what this test logged for `CC(C)(C)c1cc(-c2csc(-c3ccc(Cl)cc3)n2)cc(C(C)(C)C)c1O` ?
false (0)

What outcome does the record of this test show for `Cc1ccc(NC(=S)NNC(C)(C)C)cc1` ?
true (1)

Dear colleague, could you share the recorded outcome for `CCCCNc1cc(C(=O)O)cc(S(N)(=O)=O)c1Oc1ccccc1` when you have a moment?
false (0)

Status in this test for OCCN1C[C@@H](O)[C@@H](O)C(O)C1CO (some centres not stated) ?
false (0)

# outcome recorded in this test, key = `c1ccc(N=Nc2ccccc2)cc1`
false (0)

Which outcome was assigned to CC1CC2C3CC(F)C4=CC(=O)C=CC4(C)C3(F)C(O)CC2(C)C1(O)C(=O)CO (configuration not stated) in this test?
false (0)

# outcome recorded in this test, key = `CN(C)C(=S)SSC(=S)N(C)C`
true (1)
